Entries and their inhibition values follow.
# Measured target: Golgi-associated PDZ and coiled-coil motif-containing protein (Homo sapiens)
# Protocol summary: disruption of CAL PDZ-reporter peptide interaction – biochemical, fluorescence polarization, Cer-tagged CAL PDZ, HTS, primary screen (AID 504414);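 note: plate controls were DMSO neutral control wells for no effect and unlabeled competitor peptide control wells for full effect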
# Recorded conditions: purified CAL PDZ, TMR-peptide fluorescence polarization, 1 h; at 20 µM; active compounds read high
The whole screen tested about 330,000 compounds, of which about 55 (0.02%) were called active. The entries come from a sample that favours actives as a whole.
Unit % implied. Number only.

Before answering, review these 5 worked examples.
> print(dat)
                                   molecule  endpoint.result
1  CCOc1cc(/C=N/NC(=O)c2ccc(CSc3nncn3C)cc2)ccc1OCC(=O)N1CCOCC1            -3.73
2         Cc1csc(SCC(=O)N(c2ccccc2)C(C)C)n1            -2.45
3  CC1CCCN(C(=O)Cn2c(=O)oc3ccccc32)C1 (stereo not given)            0.481
4  COc1ccc(/C=C/C(=O)NC(=S)N2CCCC(C(N)=O)C2)cc1 (stereo not given)           -0.891
5  COc1ccccc1N1CCN(CC(=O)NCCc2ccc(S(N)(=O)=O)cc2)CC1             1.11

Query: For Golgi-associated PDZ and coiled-coil motif-containing protein (Homo sapiens), give the measured inhibition of the entry COC(=O)c1cc(NC2c3ccccc3C(=O)N2c2ccc(Cl)cn2)cc(C(=O)OC)c1 (stereo not given)
Response: 1.56

Query: State the measured inhibition (Golgi-associated PDZ and coiled-coil motif-containing protein (Homo sapiens)) of Clc1c(OCCCn2ccnc2)ccc2ccccc12
Response: -0.854

Query: Provide Golgi-associated PDZ and coiled-coil motif-containing protein (Homo sapiens) inhibition reading for CSc1ccc(Cl)c(C(=O)OCC(=O)N2CC(C)OC(C)C2)c1 (stereo not given) .
Response: 1.25

Query: Tell me inhibition of CCN(CC)c1ccc(NC(=O)CCc2nnc3ccc(N4CCCCC4)nn23)c(C)c1 when tested on Golgi-associated PDZ and coiled-coil motif-containing protein (Homo sapiens).
Response: 0.659

Query: For Golgi-associated PDZ and coiled-coil motif-containing protein (Homo sapiens), give the measured inhibition of the entry Cc1ccc(N(CC(=O)NC2CCCCC2)C(=O)CCCC(=O)Nc2ccccn2)c(C)c1
Response: 0.671

---

Listed below: inhibition values for each entry.
# Measured target: Golgi-associated PDZ and coiled-coil motif-containing protein (Homo sapiens)
# Protocol summary: disruption of CAL PDZ-reporter peptide interaction – biochemical, fluorescence polarization, Cer-tagged CAL PDZ, HTS, primary screen (AID 504414);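 note: plate controls were DMSO neutral control wells for no effect and unlabeled competitor peptide control wells for full effect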
# Recorded conditions: purified CAL PDZ, TMR-peptide fluorescence polarization, 1 h; at 20 µM; active compounds read high
In all, about 330,000 compounds went through this assay and about 55 (0.02%) were called active. The full list was thinned out, with actives kept by preference.
Please give a number only; it is taken to be in %.

Here's what some known entries look like.
> print(dat)
                                   molecule  endpoint.result
1   CCCCc1nnc(NC(=O)CSc2nc(C)cc(=O)[nH]2)s1            -0.42
2  Cc1ccc(C)c(C(=O)COC(=O)Cn2[nH]c(=O)c3ccccc3c2=O)c1            -1.04
3  Cc1ccccc1OCCC(=O)OCC(=O)NCCc1ccc(S(N)(=O)=O)cc1           -0.918
4  C=CCOc1c2ccc(C(=O)N(CC)c3ccc(OC)cc3)cc2nn1C           -0.978

Query: Give the measured inhibition for CCC(C)Sc1nc2c(cnn2-c2ccc(F)cc2)c(=O)[nH]1 (configuration not stated)
Response: -0.979

Query: Look up and state reported inhibition for C=C(C)CNC(=O)c1ccc(OC2CCN(C(=O)COC)CC2)cc1
Response: -0.166

Query: State its inhibition for this molecule: CC(C(=O)N(C)CC(=O)Nc1ccccc1C(F)(F)F)N1C(=O)c2ccccc2C1=O (configuration not stated)
Response: -0.0605

Data origin, for the record: PubChem BioAssay AID504414
